Molecular target: CFTR-R117H (Homo sapiens, UniProt P13569, R117H)
Sequence (P13569 whole entry R117H): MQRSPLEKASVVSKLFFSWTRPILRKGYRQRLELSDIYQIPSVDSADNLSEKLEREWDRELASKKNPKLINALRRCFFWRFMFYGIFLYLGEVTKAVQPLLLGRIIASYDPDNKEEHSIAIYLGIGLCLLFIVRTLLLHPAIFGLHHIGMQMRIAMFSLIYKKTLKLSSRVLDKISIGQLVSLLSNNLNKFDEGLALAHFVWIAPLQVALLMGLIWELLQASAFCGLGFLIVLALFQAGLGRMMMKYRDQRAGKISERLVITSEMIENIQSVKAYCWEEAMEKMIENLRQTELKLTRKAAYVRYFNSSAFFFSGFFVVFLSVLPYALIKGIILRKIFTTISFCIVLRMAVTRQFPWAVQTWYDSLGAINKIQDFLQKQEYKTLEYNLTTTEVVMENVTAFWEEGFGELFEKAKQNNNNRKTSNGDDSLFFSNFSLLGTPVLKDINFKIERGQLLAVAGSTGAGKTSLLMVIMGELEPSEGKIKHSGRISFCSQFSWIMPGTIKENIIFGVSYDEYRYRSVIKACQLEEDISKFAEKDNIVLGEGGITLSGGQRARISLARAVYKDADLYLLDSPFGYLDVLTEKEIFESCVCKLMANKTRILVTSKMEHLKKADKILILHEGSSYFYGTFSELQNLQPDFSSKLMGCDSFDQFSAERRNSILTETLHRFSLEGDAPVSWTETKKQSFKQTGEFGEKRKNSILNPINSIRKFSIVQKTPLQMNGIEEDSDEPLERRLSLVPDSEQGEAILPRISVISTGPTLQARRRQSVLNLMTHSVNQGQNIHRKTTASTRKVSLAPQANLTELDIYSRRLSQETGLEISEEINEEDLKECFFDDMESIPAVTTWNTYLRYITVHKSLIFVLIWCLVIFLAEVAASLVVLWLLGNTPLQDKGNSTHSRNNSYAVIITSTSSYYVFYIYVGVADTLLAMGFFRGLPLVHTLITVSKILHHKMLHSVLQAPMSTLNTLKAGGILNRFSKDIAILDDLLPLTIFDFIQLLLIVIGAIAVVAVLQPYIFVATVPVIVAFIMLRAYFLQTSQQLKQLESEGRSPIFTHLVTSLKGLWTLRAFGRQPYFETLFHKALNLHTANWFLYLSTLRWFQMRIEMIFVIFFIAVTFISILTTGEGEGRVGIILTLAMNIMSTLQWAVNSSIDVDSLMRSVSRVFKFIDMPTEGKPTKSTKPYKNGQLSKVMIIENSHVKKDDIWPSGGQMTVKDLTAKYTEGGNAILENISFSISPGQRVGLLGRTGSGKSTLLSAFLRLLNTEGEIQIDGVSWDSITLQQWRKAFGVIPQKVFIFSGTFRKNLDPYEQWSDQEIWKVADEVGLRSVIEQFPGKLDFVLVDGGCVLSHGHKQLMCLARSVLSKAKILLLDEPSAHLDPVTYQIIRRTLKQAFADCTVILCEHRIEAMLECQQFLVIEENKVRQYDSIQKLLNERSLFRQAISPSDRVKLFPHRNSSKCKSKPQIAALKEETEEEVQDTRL
Experiment: YFP-halide influx assay for the CFTR-R117H
Method: The YFP halide influx assay measures the functionality of the cystic fibrosis Transmembrane Conductance regulator (CFTR) channels. […] It makes use of the observation that the yellow fluorescent protein (YFP) variant YFP H148Q, I152L, […] has its fluorescence substantially quenched by halide ions like Cl^− and I^−. […] The I^−-induced quenching of fluorescence is recorded immediately after injection of I^− for 7 seconds. […]
For each record, check the reported EC50: if it is below 300 nM write TRUE, else write FALSE.

| Compound | Label Class |
| --- | --- |
| CC(C)(O)C(=O)Nc1sc(S(=O)(=O)c2ccc(C(F)(F)F)c(F)c2)cc1C(N)=O | FALSE |

Task: Consider `CC(C)(O)C(=O)Nc1sc(S(=O)(=O)c2cnc(C(F)(F)F)nc2)cc1C(N)=O` . Does its EC50 lie strictly below 300 nM?
Output: FALSE

Task: Take the compound `COc1cc(C#N)cc(S(=O)(=O)c2cc(C(N)=O)c(NC(=O)C(C)(C)O)s2)c1OC(F)F` and say whether its EC50 is less than 300 nM.
Output: FALSE

Task: Report whether reported EC50 is lower than 300 nM (strictly) for `CC(C)(O)C(=O)Nc1sc(S(=O)(=O)c2ccc(C#N)cc2OC(F)(F)F)cc1C(N)=O`
Output: TRUE

====

Target: CFTR ΔF508 mutant (Homo sapiens, UniProt P13569, DEL508-508)
Construct: expressed in transfected cells; host or cells: CFBE41o- (adenoviral transduction)
Sequence (P13569 with tags, fused parts or gaps DEL508-508): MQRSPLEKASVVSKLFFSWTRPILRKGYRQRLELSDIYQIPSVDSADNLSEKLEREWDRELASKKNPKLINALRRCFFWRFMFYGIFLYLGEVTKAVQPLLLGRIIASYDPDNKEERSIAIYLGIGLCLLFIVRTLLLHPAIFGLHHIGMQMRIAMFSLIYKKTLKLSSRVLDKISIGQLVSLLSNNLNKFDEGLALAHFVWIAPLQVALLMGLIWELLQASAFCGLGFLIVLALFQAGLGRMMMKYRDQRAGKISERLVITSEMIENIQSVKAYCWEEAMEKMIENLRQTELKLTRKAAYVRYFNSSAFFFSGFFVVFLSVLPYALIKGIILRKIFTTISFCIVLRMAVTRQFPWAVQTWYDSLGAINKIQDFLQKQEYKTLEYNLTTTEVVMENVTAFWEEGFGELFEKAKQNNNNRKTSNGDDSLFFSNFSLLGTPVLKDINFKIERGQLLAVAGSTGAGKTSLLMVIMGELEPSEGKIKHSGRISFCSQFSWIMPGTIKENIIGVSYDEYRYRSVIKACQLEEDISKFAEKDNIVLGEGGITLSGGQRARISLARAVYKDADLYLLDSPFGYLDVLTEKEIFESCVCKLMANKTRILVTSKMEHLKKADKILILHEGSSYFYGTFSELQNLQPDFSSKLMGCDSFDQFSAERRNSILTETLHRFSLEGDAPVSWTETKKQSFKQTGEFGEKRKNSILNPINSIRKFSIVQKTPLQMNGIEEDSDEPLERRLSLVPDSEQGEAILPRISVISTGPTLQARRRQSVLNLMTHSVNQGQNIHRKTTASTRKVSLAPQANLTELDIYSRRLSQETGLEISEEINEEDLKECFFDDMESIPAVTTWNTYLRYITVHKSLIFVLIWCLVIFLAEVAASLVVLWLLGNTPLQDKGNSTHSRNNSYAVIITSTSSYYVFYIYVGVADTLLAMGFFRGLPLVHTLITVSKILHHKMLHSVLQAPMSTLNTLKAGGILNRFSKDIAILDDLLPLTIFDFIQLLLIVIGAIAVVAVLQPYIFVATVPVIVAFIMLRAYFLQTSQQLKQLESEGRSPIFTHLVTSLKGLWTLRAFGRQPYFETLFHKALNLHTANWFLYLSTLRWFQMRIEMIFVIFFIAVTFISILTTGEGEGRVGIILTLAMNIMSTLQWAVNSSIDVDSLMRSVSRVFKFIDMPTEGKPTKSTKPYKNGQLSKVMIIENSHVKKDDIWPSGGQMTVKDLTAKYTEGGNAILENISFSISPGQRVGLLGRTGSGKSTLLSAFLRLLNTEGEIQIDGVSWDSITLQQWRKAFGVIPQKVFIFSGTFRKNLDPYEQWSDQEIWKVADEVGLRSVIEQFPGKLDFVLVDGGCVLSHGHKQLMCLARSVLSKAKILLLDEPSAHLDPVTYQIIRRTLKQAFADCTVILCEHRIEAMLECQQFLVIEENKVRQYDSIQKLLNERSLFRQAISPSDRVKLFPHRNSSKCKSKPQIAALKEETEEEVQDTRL
Test: YFP-halide influx assay for the CFTR-ΔF508 mutation (384 well, FDSS/μCell)
Format: cell-based
Conditions: CFBE41o- cells, CFTR-ΔF508, 1×D-PBS, fluorescence after 36 seconds
Quantity: pEC50
pEC50 field: float, defined as -log10 of concentration (mol/L).

Field: example entries. Status: answers known.
| Compound | Tgt | pEC50 |
| --- | --- | --- |
| C[C@@H](CO)C(=O)Nc1sc(S(=O)(=O)c2ccc(OC(F)(F)F)cc2)cc1C(N)=O [Compound 379] | CFTR ΔF508 mutant (Homo sapiens, UniProt P13569, DEL508-508) | 7.78 |
| CN(Cc1ccc(C(F)(F)F)cc1)S(=O)(=O)c1cc(C(N)=O)c(NC(=O)c2cc[nH]n2)s1 [Compound 175] | CFTR ΔF508 mutant (Homo sapiens, UniProt P13569, DEL508-508) | 7.01 |
| COC1CCN(S(=O)(=O)c2cc(C(N)=O)c(NC(=O)c3ccccc3F)s2)CC1 [Compound 123] | CFTR ΔF508 mutant (Homo sapiens, UniProt P13569, DEL508-508) | 7.12 |

Task: Param readout = pEC50; param system = CFTR ΔF508 mutant (Homo sapiens, UniProt P13569, DEL508-508); param query = CN(c1ccc(F)cc1)S(=O)(=O)c1cc(C(N)=O)c(NC(=O)C(C)(C)O)s1 [Compound 304] ; response: value
Output: 6.96

Task: Find pEC50 (CFTR ΔF508 mutant (Homo sapiens, UniProt P13569, DEL508-508)) for the entry CC(C)(O)C(=O)Nc1sc(S(=O)(=O)c2ccc(C#N)cc2C(F)(F)F)cc1C(N)=O [Compound 407]
Output: 7.30

Task: Provide the documented pEC50 with CFTR ΔF508 mutant (Homo sapiens, UniProt P13569, DEL508-508) as the system for CC(C)(O)C(=O)Nc1sc(S(=O)(=O)N2CCOc3ccccc32)cc1C(N)=O [Compound 307]
Output: 7.55

====

Some compounds, each annotated with its measured pEC50.
Molecular target: CFTR G551D mutant (Homo sapiens, UniProt P13569, G551D)
Construct: expressed in transfected cells; host or cells: HEK293 (reverse transfection with plasmid)
Sequence (P13569 whole entry G551D): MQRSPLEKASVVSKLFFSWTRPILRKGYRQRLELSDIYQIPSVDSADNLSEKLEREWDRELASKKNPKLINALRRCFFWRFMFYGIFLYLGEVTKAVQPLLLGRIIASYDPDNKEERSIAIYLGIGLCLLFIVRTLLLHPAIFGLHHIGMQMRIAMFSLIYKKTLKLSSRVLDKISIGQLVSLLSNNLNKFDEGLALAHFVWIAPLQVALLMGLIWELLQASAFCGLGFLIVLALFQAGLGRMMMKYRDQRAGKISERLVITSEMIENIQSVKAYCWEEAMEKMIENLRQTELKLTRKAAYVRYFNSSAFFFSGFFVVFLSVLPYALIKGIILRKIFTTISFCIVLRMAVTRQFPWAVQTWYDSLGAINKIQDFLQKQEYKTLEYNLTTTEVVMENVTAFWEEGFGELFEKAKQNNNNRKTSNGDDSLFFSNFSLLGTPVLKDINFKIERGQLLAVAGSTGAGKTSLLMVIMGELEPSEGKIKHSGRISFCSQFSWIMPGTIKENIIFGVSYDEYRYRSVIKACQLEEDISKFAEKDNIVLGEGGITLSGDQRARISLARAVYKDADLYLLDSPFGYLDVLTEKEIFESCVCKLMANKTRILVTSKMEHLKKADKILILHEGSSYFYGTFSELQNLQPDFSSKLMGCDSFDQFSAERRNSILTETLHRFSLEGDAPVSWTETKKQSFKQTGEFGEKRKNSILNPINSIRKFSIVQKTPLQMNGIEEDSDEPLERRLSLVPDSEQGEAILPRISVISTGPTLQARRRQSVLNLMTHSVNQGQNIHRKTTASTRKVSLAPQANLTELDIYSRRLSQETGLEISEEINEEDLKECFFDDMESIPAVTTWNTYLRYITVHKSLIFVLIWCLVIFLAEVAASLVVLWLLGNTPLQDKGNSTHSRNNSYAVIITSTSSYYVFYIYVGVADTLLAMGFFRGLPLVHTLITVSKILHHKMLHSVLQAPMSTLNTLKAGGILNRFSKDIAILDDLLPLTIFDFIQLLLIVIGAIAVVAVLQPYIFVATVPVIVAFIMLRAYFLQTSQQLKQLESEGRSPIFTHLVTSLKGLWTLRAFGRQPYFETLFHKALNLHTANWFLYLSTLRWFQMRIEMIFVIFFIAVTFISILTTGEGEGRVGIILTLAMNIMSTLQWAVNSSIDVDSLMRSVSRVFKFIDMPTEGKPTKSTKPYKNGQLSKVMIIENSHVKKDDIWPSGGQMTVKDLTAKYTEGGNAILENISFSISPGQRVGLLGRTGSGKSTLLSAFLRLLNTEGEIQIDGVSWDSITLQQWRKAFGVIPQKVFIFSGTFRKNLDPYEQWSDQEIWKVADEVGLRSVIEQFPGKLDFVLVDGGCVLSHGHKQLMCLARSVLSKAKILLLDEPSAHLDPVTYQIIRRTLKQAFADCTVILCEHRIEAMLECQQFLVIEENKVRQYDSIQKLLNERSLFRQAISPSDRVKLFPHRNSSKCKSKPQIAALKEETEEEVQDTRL
Assay: YFP-halide influx assay for the CFTR-G551D mutation
Type: cell-based
Settings: HEK293 cells, forskolin 10.67 μM
# pEC50: negative log10 of molar concentration; output just the value

Below: 3 compounds and their reported pEC50.
| Mol | Quantity | Result Number |
| --- | --- | --- |
| CC(C)Oc1cc(F)ccc1S(=O)(=O)c1cc(C(N)=O)c(NC(=O)C(C)(C)O)s1 | pEC50 | 5.81 |
| CC(C)c1nn(C)cc1S(=O)(=O)c1cc(C(N)=O)c(NC(=O)C(C)(C)O)s1 | pEC50 | 5.26 |
| CC(C)[C@H](O)C(=O)Nc1sc(S(=O)(=O)c2ccc(F)cc2Cl)cc1C(N)=O | pEC50 | 6.55 |

Task: // map `C[C@@H](O)C(=O)Nc1sc(S(=O)(=O)c2ccc(F)cc2)cc1C(N)=O` to recorded pEC50 (system: CFTR G551D mutant (Homo sapiens, UniProt P13569, G551D))
Output: 5.48

====

pEC50 values, listed per item
Molecular target: CFTR ΔF508 mutant (Homo sapiens, UniProt P13569, DEL508-508)
Construct: expressed in transfected cells; host or cells: CFBE41o- (adenoviral transduction)
Assay: YFP-halide influx assay for the CFTR-ΔF508 mutation, gluconate buffer
Assay type: cell-based
Conditions: CFBE41o- cells, forskolin 10.67 μM
On this scale, pEC50 is minus log10 of a concentration expressed in M (mol/L).

Known results for molecules:
| Mol | Result Number |
| --- | --- |
| NC(=O)c1cc(S(=O)(=O)N2CCC(F)(F)CC2)sc1NC(=O)c1ccccc1O | 7.13 |
| COc1ccccc1C(=O)Nc1sc(S(=O)(=O)N2CCCCC2)cc1C(N)=O | 6.11 |
| NC(=O)c1cc(S(=O)(=O)N(Cc2cccc(F)c2)C2CC2)sc1NC(=O)c1ccccc1F | 6.44 |

Task: Quick one: pEC50 for `NC(=O)c1cc(S(=O)(=O)c2cccc(F)c2)sc1NC(=O)c1ccccc1F` ?
Output: 6.63

Task: May I ask what pEC50 has been recorded for `Cc1nc(C(=O)Nc2sc(S(=O)(=O)N3CCOCC3)cc2C(N)=O)cs1` ?
Output: 5.48

Task: Item `Cc1c(S(=O)(=O)N2CCOCC2)sc(NC(=O)C(C)(C)C)c1C(N)=O` has what recorded pEC50?
Output: 6.02

Task: # pEC50 lookup, item `NC(=O)c1cc(S(=O)(=O)N2CCC(F)(F)CC2)sc1NC(=O)C1(O)CC1`
Output: 6.94

====

Biological target: CFTR G551D mutant (Homo sapiens, UniProt P13569, G551D)
Construct: expressed in transfected cells; host or cells: HEK293 (reverse transfection with plasmid)
Test: YFP-halide influx assay for the CFTR-G551D mutation
Format: cell-based
Settings: HEK293 cells, forskolin 10.67 μM
Overview of reported pEC50 across a group of molecules:
Just so you know, pEC50 here is -log10 of the concentration in molar units; reply with that number alone.

// known answers, use as guide
| Molecule | pEC50 |
| --- | --- |
| COc1ccc(OC(F)(F)F)c(S(=O)(=O)c2cc(C(N)=O)c(NC(=O)C(C)(C)O)s2)c1 | 7.00 |
| NC(=O)c1cc(S(=O)(=O)N2CCC(F)(F)CC2)sc1NC(=O)c1ccccc1O | 6.56 |
| CC(C)(O)C(=O)Nc1sc(S(=O)(=O)c2cc(CC#N)cc(OC(F)(F)F)c2)cc1C(N)=O | 5.48 |
| CC(C)(O)C(=O)Nc1sc(S(=O)(=O)c2ccc(Cl)cc2OC(F)(F)F)cc1C(N)=O | 6.16 |
| CC(C)(C)[C@H](O)C(=O)Nc1sc(S(=O)(=O)c2ccc(C(F)(F)F)cc2)cc1C(N)=O | 6.51 |

Task: Hello, I am looking for reported pEC50 with CFTR G551D mutant (Homo sapiens, UniProt P13569, G551D) for `CN(Cc1ccncc1)S(=O)(=O)c1cc(C(N)=O)c(NC(=O)c2cc[nH]n2)s1` . Could you help?
Output: 6.35

Task: Query the reported pEC50 for CFTR G551D mutant (Homo sapiens, UniProt P13569, G551D); item: NC(=O)c1cc(S(=O)(=O)c2ccc(F)cc2)sc1NC(=O)C(O)C(F)(F)F (stereo not shown)
Output: 6.67

Task: Test system CFTR G551D mutant (Homo sapiens, UniProt P13569, G551D); read-out pEC50; what value for `CC(C)(O)C(=O)Nc1sc(S(=O)(=O)c2nccnc2C(F)(F)F)cc1C(N)=O` ?
Output: 5.18

Task: Report pEC50 for `CC1(C)CN(S(=O)(=O)c2cc(C(N)=O)c(NC(=O)c3ccccc3F)s2)C1` tested on CFTR G551D mutant (Homo sapiens, UniProt P13569, G551D).
Output: 6.28

Task: CFTR G551D mutant (Homo sapiens, UniProt P13569, G551D) / pEC50 / `CN(C1CC1)S(=O)(=O)c1cc(C(N)=O)c(NC(=O)c2cc[nH]n2)s1` : value?
Output: 6.50

Task: Form: Entry = `NC(=O)c1cc(S(=O)(=O)N2CCOCC2)sc1NC(=O)c1ccccc1O` | System = CFTR G551D mutant (Homo sapiens, UniProt P13569, G551D) | pEC50 = ____
Output: 6.64

Task: Recorded pEC50 for `NC(=O)c1cc(S(=O)(=O)c2cccc(F)c2)sc1NC(=O)C1(O)CC1` with CFTR G551D mutant (Homo sapiens, UniProt P13569, G551D), please?
Output: 6.33
